Value source: PubChem BioAssay

Assay: growth modulation of vineyard yeast isolate – strain RM11-1a, OD600, basal, 24 h, primary screen (AID 1177);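 further: cultures grown under basal conditions with no added stressor; test concentration not given here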
Settings: S. cerevisiae RM11-1a growth, OD600, 24 h; higher = more signal, called active from +8 up or from −8 down
Would you mind classing the entries by z-score? Ranges: lowest = under -0.2, middle = from -0.2 up to 0.6, highest = 0.6 and over

molecule	discrete-label
CCC(CC)C(O)C1C=CC2C(=O)N(c3ccccc3)C(=O)C2N1Nc1ccccc1 (stereo not given)	middle
C=CCNC(=O)[C@H]1[C@@H]2C(=O)O[C@@H](c3ccccc3)[C@@H](c3ccccc3)N2[C@@H](c2ccc(OCCO)cc2)[C@]12C(=O)Nc1ccc(C#CCC(C(=O)OC)C(=O)OC)cc12	highest
COc1ccc(C#Cc2ccc3c(c2)[C@]2(C(=O)N3)[C@H](c3ccc(O)cc3)N3[C@H](c4ccccc4)[C@H](c4ccccc4)OC(=O)[C@H]3[C@@H]2C(=O)N2CCc3cc(OC)c(OC)cc3C2)cc1	highest
O=C1C2C=CC(C(O)COCc3ccccc3)N(Nc3ccc([N+](=O)[O-])cc3)C2C(=O)N1c1ccccc1 (stereo not given)	middle
COC(=O)[C@@]1(Cc2ccccc2)[C@H]2c3cc(C(=O)N4CCCC4)n(Cc4c(CO)[nH]cc(C)c4=O)c3C[C@H]2CN1C(=O)c1ccccc1	highest
CCCNC(=O)[C@@]1(Sc2ccc(C)cc2)CC(=O)N(Cc2ccccc2C(F)(F)F)[C@@H]1c1ccc(CO)cc1I	lowest
O=C1C2C=CC(C(O)C=Cc3ccc([N+](=O)[O-])cc3)N(Nc3ccccc3F)C2C(=O)N1c1ccccc1 (stereo not given)	highest
O=C1C2C=CC(C(O)c3ccc(F)cc3)N(Nc3ccc([N+](=O)[O-])cc3)C2C(=O)N1c1ccccc1 (stereo not given)	lowest
Cc1ccc(/C=C/C=O)cc1	middle
O=C1OCCC=C[C@H]2OC34C=CCN(Cn5nnc6ccccc65)C(=O)[C@H]3N(CCO)C(=O)[C@@H]4C12 (stereo not given in full)	middle
